Experiment: gradient 5% acetonitrile 3 min, to 50% in 2 min, to 85% in 15 min, held 3 min, 100 µL/min
Conditions: column: Zorbax Extend-C18 2.1 x 50 mm; eluents: water / acetonitrile, 0.1% formic acid
OUTCOME MEASURE: RP-LC retention time
A complete answer gives the number followed by the unit.

Below, 2 compounds whose answers are already recorded.
- COMPOUND: "Cc1noc(C)c1CNC(=O)c1cc(F)ccc1Cl"
  OUTCOME MEASURE: "RP-LC retention time"
  ASSAY VALUE: "726 s"
- COMPOUND: "COc1ccc(OC)c(S(=O)(=O)N2CCCC(C(=O)NCC(C)C)C2)c1 (stereo unspecified)"
  OUTCOME MEASURE: "RP-LC retention time"
  ASSAY VALUE: "796 s"

Q: # lookup: RP-LC retention time of O=C(O)c1ccc(Nc2c(-c3cccc(O)c3)nc3cnccn23)cc1
A: 620 s

Q: # lookup: RP-LC retention time of CCc1nc2c(NC(=O)CC3CCCCC3)cccn2n1
A: 960 s

Q: # lookup: RP-LC retention time of Cc1ccc(C)c(N2CCN(c3ccnc(SCC(=O)NC(C)CCc4ccccc4)n3)CC2)c1 (stereo unspecified)
A: 1020 s

Q: # lookup: RP-LC retention time of Cc1nc2cc(N3CC(C(=O)NCc4ccc(Cl)cc4)CC3=O)ccc2o1 (stereo unspecified)
A: 743 s

Q: # lookup: RP-LC retention time of COc1cccc(CNC(=O)C2CCN(S(=O)(=O)c3cn(C(C)C)cn3)CC2)c1
A: 714 s

Q: # lookup: RP-LC retention time of Cc1nc(-c2ccc(S(=O)(=O)Nc3ccc(S(N)(=O)=O)cc3)cc2)co1
A: 706 s

###

Some molecules, each annotated with its measured RP-LC retention time.
Test: gradient 5% acetonitrile 3 min, to 50% in 2 min, to 85% in 15 min, held 3 min, 100 µL/min
Settings: column: Zorbax Extend-C18 2.1 x 50 mm; eluents: water / acetonitrile, 0.1% formic acid

Below, 2 molecules whose answers are already recorded.
- MOLECULE: "Cc1ccccc1-c1nc(CN2CCN(C(=O)NC3CCCC3)CC2)c(C)o1"
  RP-LC retention time: "672 s"
- MOLECULE: "CCCS(=O)(=O)N1CCC(Oc2nccnc2N2CCOCC2)C1 (stereo not drawn)"
  RP-LC retention time: "761 s"

Next:
Q: # lookup: RP-LC retention time of CN1C(=O)C2(CCN(C(=O)Nc3ccc4c(c3)OCCO4)C2)c2ccccc21 (stereo not drawn)
A: 748 s

###

Test: gradient 5% acetonitrile 3 min, to 50% in 2 min, to 85% in 15 min, held 3 min, 100 µL/min
Conditions: column: Zorbax Extend-C18 2.1 x 50 mm; eluents: water / acetonitrile, 0.1% formic acid
OUTCOME MEASURE: RP-LC retention time (s)
Just the number in s, nothing appended.

- MOLECULE: "O=C(NC1CC1)c1ccc(OCC2CCCN(C(=O)c3c(F)cccc3F)C2)cc1 (stereo not given)"
  RP-LC retention time / s: 820
- MOLECULE: "Cc1cccc(N2CCN(c3cc(C(=O)O)c4cc(NC(=O)C(C)C)ccc4n3)CC2)c1C"
  RP-LC retention time / s: 732
- MOLECULE: "O=C(Nc1nc(-c2cccnc2)cs1)C(c1ccccc1)n1cccc1 (stereo not given)"
  RP-LC retention time / s: 662
- MOLECULE: "Cc1ccc(F)c(NS(=O)(=O)c2ccc(-c3nnc(C4CCC4)o3)o2)c1"
  RP-LC retention time / s: 924
- MOLECULE: "O=C(NC1CC1)C1CCN(c2nc3ccc(-c4ccccc4)nc3s2)CC1"
  RP-LC retention time / s: 865
- MOLECULE: "CC(=O)N1CCN(Cc2nc(-c3ccc(N4CCCC(C)C4)nc3)no2)CC1 (stereo not given)"
  RP-LC retention time / s: 669

Q: # lookup: RP-LC retention time of CC1Cc2cc(-c3cc(CC(=O)N4CCN(c5ccccc5F)CC4)no3)ccc2O1 (stereo not given)
A: 975

Q: # lookup: RP-LC retention time of O=C(NCCc1csc(-c2ccccc2)n1)c1cccs1
A: 860

###

Test: gradient 5% acetonitrile 3 min, to 50% in 2 min, to 85% in 15 min, held 3 min, 100 µL/min
Settings: column: Zorbax Extend-C18 2.1 x 50 mm; eluents: water / acetonitrile, 0.1% formic acid
Some compounds, each annotated with its measured RP-LC retention time.
Just the number in s, nothing appended.

Below, 6 compounds whose answers are already recorded.
- COMPOUND: "Cc1cc(Nc2ccc(Cl)cc2C)n2ncnc2n1"
  OUTCOME MEASURE: "RP-LC retention time"
  READING UNIT: "s"
  ASSAY VALUE: 806
- COMPOUND: "COCC(=O)N1CCC(Oc2nccnc2N2CCc3ccccc32)C1 (centres undefined)"
  OUTCOME MEASURE: "RP-LC retention time"
  READING UNIT: "s"
  ASSAY VALUE: 779
- COMPOUND: "Cc1nc(-c2cccs2)c(CCC(=O)Nc2ccccc2C(F)(F)F)s1"
  OUTCOME MEASURE: "RP-LC retention time"
  READING UNIT: "s"
  ASSAY VALUE: 923
- COMPOUND: "COc1ccc(-c2noc(C3CCCN3C(=O)c3cc(OC)c(OC)c(OC)c3)n2)cc1OC (centres undefined)"
  OUTCOME MEASURE: "RP-LC retention time"
  READING UNIT: "s"
  ASSAY VALUE: 828
- COMPOUND: "CCCCC(=O)N(C)CC1CCOCC1"
  OUTCOME MEASURE: "RP-LC retention time"
  READING UNIT: "s"
  ASSAY VALUE: 686
- COMPOUND: "Cc1ccc(NC(=O)C2CCCN(S(=O)(=O)c3cn(C(C)C)cn3)C2)cc1Cl (centres undefined)"
  OUTCOME MEASURE: "RP-LC retention time"
  READING UNIT: "s"
  ASSAY VALUE: 879

Q: # lookup: RP-LC retention time of Cc1cc(C)c(-c2noc(C)n2)c(NC(=O)c2ccc(Cl)cc2)n1
A: 790

Q: # lookup: RP-LC retention time of COC(=O)c1cccc(N2C=C(C#N)S(=O)(=O)c3cc(F)ccc32)c1
A: 872

Q: # lookup: RP-LC retention time of COc1ccc(NC(=O)N(C)CC2CCOCC2)cc1F
A: 682

Q: # lookup: RP-LC retention time of c1ccc(-c2noc(NCc3ccc4c(c3)OCO4)n2)cc1
A: 974

Q: # lookup: RP-LC retention time of Cc1ccn2c(NC(=O)C3CCCCC3)c(-c3ccc(F)cc3)nc2c1
A: 657

Q: # lookup: RP-LC retention time of CCc1nc(OCC(=O)Nc2ccc(C)cc2Br)c2ccccc2n1
A: 895

Q: # lookup: RP-LC retention time of CCc1ccc(NC(=O)N2CCC(N3CCN(Cc4ccccc4)C(=O)C3=O)CC2)cc1
A: 789

Q: # lookup: RP-LC retention time of O=C1C(=O)N(Cc2ccc(C(=O)N3CCCC3)cc2)CCN1Cc1ccc(F)cc1
A: 702

###

Assay: gradient 5% acetonitrile 3 min, to 50% in 2 min, to 85% in 15 min, held 3 min, 100 µL/min
Conditions: column: Zorbax Extend-C18 2.1 x 50 mm; eluents: water / acetonitrile, 0.1% formic acid
Binary classification by RP-LC retention time, with 900 s as an inclusive lower bound for T; all other cases are F.

- COMPOUND: "CCn1cc(NC(=O)Nc2nc(C)cs2)c2ccccc21"
  ASSIGNED CLASS: "F"
- COMPOUND: "CCc1ccccc1S(=O)(=O)NCC(c1cccnc1)c1c[nH]c2ccccc12 (configuration not stated)"
  ASSIGNED CLASS: "F"

Q: Tell me whether RP-LC retention time is at least 900 s here: Cn1cc(C(=O)Nc2ccc3c(c2)OCCO3)c2cccnc21
A: F

Q: Tell me whether RP-LC retention time is at least 900 s here: Cc1ccc(C)c(NC(=O)CCCN2C(=O)COc3ccc(C)cc32)c1
A: T

Q: Tell me whether RP-LC retention time is at least 900 s here: COC(=O)c1ccccc1NC(=O)NCc1ccccc1
A: F

Q: Tell me whether RP-LC retention time is at least 900 s here: O=C(Cn1ccn2nc(-c3ccccc3)c(CO)c2c1=O)NC1CCCC1
A: F

###

Some compounds, each annotated with its measured RP-LC retention time.
Assay: gradient 5% acetonitrile 3 min, to 50% in 2 min, to 85% in 15 min, held 3 min, 100 µL/min
Settings: column: Zorbax Extend-C18 2.1 x 50 mm; eluents: water / acetonitrile, 0.1% formic acid
Just the number in s, nothing appended.

- COMPOUND STRING: "O=C(C1=CN(c2cccc(F)c2)c2cc(Cl)ccc2S1(=O)=O)N1CCCC1"
  RP-LC retention time / s: 838
- COMPOUND STRING: "CCc1nc(-c2cc(S(=O)(=O)NCC(=O)N3CCCCC3)c(C)s2)no1"
  RP-LC retention time / s: 891

Next:
Q: # lookup: RP-LC retention time of COc1cccc(CNC(=O)CCc2nc3c(C)cccc3c(=O)n2C)c1OC
A: 791
